- Protocol details: Quantitative High-Throughput drug screen in 47 multiple myeloma cell lines against the NCATS MIPE library collection: KMS27_JCRB cell viability assay (AID 1918970); note: nearly all actives have a fitted effect of over 30% in size
- Experimental parameters: KMS27 myeloma cells, CellTiter-Glo ATP viability, 48 h; series mostly up to 45.8 µM
Results filed as inconclusive are left out. The source made the active and inactive calls. Calls come from the whole dose curve; as a rule, active = well fitted cell-killing curve with a large enough effect; inconclusive = small, poorly fitted or top-dose-only effect, or effect the other way; inactive = no such curve, though single readings can be large or run the other way.
Outcomes: Y for active, N for inactive

{"Compound": "Clc1ccc(C(Cn2ccnc2)OCc2c(Cl)cccc2Cl)c(Cl)c1 (configuration not stated)", "Assigned category": "Y"}
{"Compound": "CNC[C@H](O)c1ccc(O)c(O)c1", "Assigned category": "N"}
{"Compound": "CC1=C(C(=O)O)N2C(=O)[C@@H](NC(=O)[C@H](N)C3=CCC=CC3)[C@H]2SC1", "Assigned category": "N"}
{"Compound": "Cc1ncc([N+](=O)[O-])n1CC(C)O (configuration not stated)", "Assigned category": "N"}
{"Compound": "C[Se]CCC(N)C(=O)O (configuration not stated)", "Assigned category": "N"}
{"Compound": "N=C(N=C(N)N)N1CCOCC1", "Assigned category": "N"}
{"Compound": "O=C(CCc1ccc(O)cc1)c1c(O)cc(O)cc1O", "Assigned category": "Y"}

###

- System: CP291
- Protocol details: qHTS profiling for inhibitors of Plasmodium falciparum proliferation (AID 504749); note: nearly all actives have a fitted effect of over 60% in size
- Experimental parameters: P. falciparum in erythrocytes, SYBR Green DNA, 72 h; series mostly up to 28.7 µM
Results filed as inconclusive are left out. Calls of active or inactive are those of the source. The call rests on the fitted dose curve; in most records, active means well fitted inhibition curve with a large enough effect; inconclusive means small, poorly fitted or top-dose-only effect; inactive means flat fitted curve, though single readings scatter.
Outcomes: active, inactive

{"Compound": "Cc1nc(Nc2ncc(C(=O)Nc3c(C)cccc3Cl)s2)cc(N2CCN(CCO)CC2)n1", "Assigned category": "inactive"}
{"Compound": "CNC[C@@H](O)[C@@H](O)[C@H](O)[C@H](O)CO", "Assigned category": "inactive"}
{"Compound": "COC(=O)C1=C(C)NC(C)=C(C(=O)OCCCN2CCC(c3ccccc3)(c3ccccc3)CC2)C1c1cccc([N+](=O)[O-])c1 (centres undefined)", "Assigned category": "active"}
{"Compound": "O=P(O)(O)C(O)(Cn1ccnc1)P(=O)(O)O", "Assigned category": "inactive"}
{"Compound": "Cn1c(NCCN(CCO)CCCc2ccc([N+](=O)[O-])cc2)cc(=O)n(C)c1=O", "Assigned category": "inactive"}
{"Compound": "O=C1c2ccccc2-c2n[nH]c3cccc1c23", "Assigned category": "inactive"}
{"Compound": "CCCc1cc(=O)[nH]c(=S)[nH]1", "Assigned category": "inactive"}
{"Compound": "NNc1nncc2ccccc12", "Assigned category": "inactive"}
{"Compound": "CCOC(=O)c1c(C)n(C)c2ccc(O)cc12", "Assigned category": "inactive"}
{"Compound": "COC1=C(OC)C(=O)C(CCCCCCCCCCO)=C(C)C1=O", "Assigned category": "inactive"}
{"Compound": "CCCOc1ccc2nc(NC(=O)OC)[nH]c2c1", "Assigned category": "inactive"}
{"Compound": "O=C(O)c1cccnc1Nc1cccc(C(F)(F)F)c1", "Assigned category": "inactive"}
{"Compound": "CN1C(C(=O)Nc2ccccn2)=C(O)c2sccc2S1(=O)=O", "Assigned category": "inactive"}
{"Compound": "Cc1cc(=O)oc2cc(O)ccc12", "Assigned category": "inactive"}
{"Compound": "CN(C)c1ccc2nc3ccc(=[N+](C)C)cc-3sc2c1", "Assigned category": "active"}
{"Compound": "Cc1nc2n(c(=O)c1CCN1CCC(c3noc4cc(F)ccc34)CC1)CCCC2", "Assigned category": "inactive"}
{"Compound": "CCN(CC)CCOc1ccc(Cc2ccccc2)cc1", "Assigned category": "inactive"}
{"Compound": "CCC(C)(Oc1ccc(C2(c3ccc(OC(C)(CC)C(=O)O)cc3)CCCCC2)cc1)C(=O)O (centres undefined)", "Assigned category": "inactive"}
{"Compound": "O=C1CCc2ccc(OCCCCN3CCN(c4cccc(Cl)c4Cl)CC3)cc2N1", "Assigned category": "inactive"}
{"Compound": "O=C(CS(=O)Cc1ccco1)NCC=CCOc1cc(CN2CCCCC2)ccn1 (centres undefined)", "Assigned category": "inactive"}
{"Compound": "CN(C)C(=O)COC(=O)Cc1ccc(OC(=O)c2ccc(N=C(N)N)cc2)cc1", "Assigned category": "inactive"}
{"Compound": "COc1cc2c(cc1OC)C1CC(=O)C(CC(C)C)CN1CC2 (centres undefined)", "Assigned category": "inactive"}
{"Compound": "COc1cc(OC)c(C(=O)CCCN2CCCC2)c(OC)c1", "Assigned category": "inactive"}
{"Compound": "Cc1cc2cc3c(C)cc(=O)oc3c(C)c2o1", "Assigned category": "inactive"}

###

- Protocol details: Cell Viability - HUV-EC-C (AID 542);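 note: cells exposed to compound for 40 hours; nearly all actives have a fitted effect of over 35% in size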
- Experimental parameters: HUV-EC-C endothelial cell viability, qHTS; series mostly up to 92.2 µM
- Excerpt: NIH Chemical Genomics Center [NCGC] NIH Molecular Libraries Screening Centers Network [MLSCN] National Institutes of Environmental Health Sciences [NIEHS] National Toxicology Program [NTP] We have developed a 1536-well cell-based assay for quantitative high throughput screening (qHTS) against a number of cell lines to determine in vitro cytotoxicity of small molecules. […] 8. Detection; Luminescence; Viewlux plate reader […]
Inconclusive results are not listed. Calls of active or inactive are those of the source. The call rests on the fitted dose curve; in most records, active means well fitted cell-killing curve with a large enough effect; inconclusive means small, poorly fitted or top-dose-only effect, or effect the other way; inactive means flat fitted curve, though single readings scatter. Peptide text beside a SMILES is read from it.
Outcomes: active, inactive

{"Molecule": "CS(=O)(=O)OCCCCOS(C)(=O)=O", "Assigned category": "inactive"}
{"Molecule": "Nc1ccc(S(N)(=O)=O)cc1", "Assigned category": "inactive"}
{"Molecule": "CN(C)c1ccc2nc3ccc(=[N+](C)C)cc-3sc2c1", "Assigned category": "active"}
{"Molecule": "COC(=O)[C@H](Cc1ccccc1)NC(=O)[C@@H](N)CC(=O)O (H-Asp-Phe-OMe)", "Assigned category": "inactive"}
{"Molecule": "COc1c2occc2cc2ccc(=O)oc12", "Assigned category": "inactive"}
{"Molecule": "Cc1ccc(C)c(OCCCC(C)(C)C(=O)O)c1", "Assigned category": "inactive"}
{"Molecule": "CC(=O)Nc1ccc(O)cc1", "Assigned category": "inactive"}
{"Molecule": "c1ccc2[nH]c(-c3cscn3)nc2c1", "Assigned category": "inactive"}

###

- Target or system: Calcium and integrin-binding protein 1 (Homo sapiens) (UniProt Q99828)
- Sequence (Q99828 whole entry, looked up): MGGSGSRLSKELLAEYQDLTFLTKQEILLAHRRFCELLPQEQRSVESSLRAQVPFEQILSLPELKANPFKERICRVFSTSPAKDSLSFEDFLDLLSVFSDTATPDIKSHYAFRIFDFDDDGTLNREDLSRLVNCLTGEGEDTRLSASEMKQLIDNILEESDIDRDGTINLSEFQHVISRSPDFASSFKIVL
- Protocol details: Validation qHTS for Identification of Calcium Integrin Binding protein 1 (CIB1) Competitor (AID 1508618); note: % is set by controls: 0 for no effect and ±100 for the full control effect
- Experimental parameters: CIB1-GST / FITC-alphaIIb peptide fluorescence polarization; series mostly up to 114 µM
Results filed as inconclusive are left out. The source made the active and inactive calls. Calls come from the whole dose curve; as a rule, active = well fitted curve in the direction sought with a large enough effect; inconclusive = small, poorly fitted or top-dose-only effect, or another doubt; inactive = no such curve, though single readings can be large or run the other way.

{"Mol": "Clc1ccc2c(N3CCN(CCCN4CCN(c5ccnc6cc(Cl)ccc56)CC4)CC3)ccnc2c1", "Target or system": "Calcium and integrin-binding protein 1 (Homo sapiens) (UniProt Q99828)", "outcome": "inactive"}
{"Mol": "Nc1nc(OCc2ccccc2)c2[nH]cnc2n1", "Target or system": "Calcium and integrin-binding protein 1 (Homo sapiens) (UniProt Q99828)", "outcome": "inactive"}
{"Mol": "Cc1cccc(-c2[nH]ncc2-c2ccc3ncccc3n2)n1", "Target or system": "Calcium and integrin-binding protein 1 (Homo sapiens) (UniProt Q99828)", "outcome": "inactive"}
{"Mol": "O=C(CCc1ccc(O)cc1)c1c(O)cc(O)cc1O", "Target or system": "Calcium and integrin-binding protein 1 (Homo sapiens) (UniProt Q99828)", "outcome": "inactive"}
{"Mol": "NC(=NCc1ccccc1)NC(=O)c1nc(Cl)c(N)nc1N", "Target or system": "Calcium and integrin-binding protein 1 (Homo sapiens) (UniProt Q99828)", "outcome": "inactive"}
{"Mol": "CCN(CC)C(=S)SSC(=S)N(CC)CC", "Target or system": "Calcium and integrin-binding protein 1 (Homo sapiens) (UniProt Q99828)", "outcome": "inactive"}
{"Mol": "NCCCCNCCCN", "Target or system": "Calcium and integrin-binding protein 1 (Homo sapiens) (UniProt Q99828)", "outcome": "inactive"}
{"Mol": "c1cnc2cc3c(cc2n1)C1CNCC3C1", "Target or system": "Calcium and integrin-binding protein 1 (Homo sapiens) (UniProt Q99828)", "outcome": "inactive"}

###

Listed next: entries and their corresponding activation.
- Protocol details: qHTS assay for small molecule activators of the nuclear factor-kappa B (NF-kB) signaling pathway (AID 651749); note: % of control where 0% means no effect
- Experimental parameters: NF-kB-bla ME-180 cells, beta-lactamase FRET ratio, 16 h; stronger effect = higher value
Records with an inconclusive call do not appear. Activity calls are given as the source filed them. Calls follow the shape of the dose curve; as a rule, active = well fitted activation curve with a large enough effect in the signal ratio; inconclusive = small, poorly fitted or top-dose-only effect, or a change in a side signal; inactive = flat fitted curve, though single readings scatter; the % refers to the signal ratio.
Value kind: activation

{"Compound": "CCCCC(CC)COC(=O)C(C#N)=C(c1ccccc1)c1ccccc1 (centres undefined)", "Recorded value": "0.0169% (inactive)"}
{"Compound": "N[C@@H](Cc1cc(I)c(Oc2cc(I)c(O)c(I)c2)c(I)c1)C(=O)O", "Recorded value": "8.63% (inactive)"}
{"Compound": "COc1cc(OC)c(C(=O)CCCN2CCCC2)c(OC)c1", "Recorded value": "-0.152% (inactive)"}
{"Compound": "Nc1nc(Cl)nc2c1ncn2[C@H]1C[C@H](O)[C@@H](CO)O1", "Recorded value": "0.321% (inactive)"}
